Just for reference, patent US8741926B2 is where these values come from.

System: HCV type 1b replicon in Huh-7 luc/neo (Huh-Luc) cells
methodSummary: Replicon assay: inhibition of HCV RNA replication in Huh-Luc cells (luciferase)
Assay type: cell-based
setupConditions: Hepatitis C virus, Huh-7, 72 h, luciferase activity, incubation of three days
// NB: equality with 0.003 µM counts as not fulfilled; only EC50 strictly below is fulfilled

COc1ccc2c(O[C@@H]3C[C@H]4C(=O)N[C@]5(C(=O)NS(=O)(=O)C6(C)CC6)C[C@H]5/C=C\CCCCN(C)C(=O)[C@@H]4C3)cc(-c3nc(C(C)C)cs3)nc2c1Cl
fulfilled
COc1ccc2c(O[C@@H]3C[C@H]4C(=O)N[C@]5(C(=O)NS(=O)(=O)C6CC6)C[C@H]5/C=C\CCCCCNC(=O)N4C3)cc(-c3nc(C(C)C)cs3)nc2c1C (stereo in doubt)
not fulfilled
COc1ccc2c(O[C@@H]3C[C@H]4C(=O)N[C@]5(C(=O)O)C[C@H]5/C=C\CCCCN(C)C(=O)[C@@H]4C3)cc(-c3nc(C(C)C)cs3)nc2c1C
not fulfilled
COc1ccc2c(O[C@@H]3C[C@H]4C(=O)N[C@]5(C(=O)NS(=O)(=O)C6CC6)C[C@H]5/C=C\CCCCN(C)C(=O)[C@@H]4C3)cc(-c3nc(C(C)C)cs3)nc2c1F
not fulfilled
COc1ccc2c(O[C@@H]3C[C@H]4C(=O)N[C@]5(C(=O)NS(=O)(=O)C6CC6)C[C@H]5/C=C\CCCCCNC(=O)N4C3)cc(-c3nc(C(C)C)cs3)nc2c1Cl (stereo in doubt)
not fulfilled

Next:
Task item: Determine whether this molecule shows EC50 lower than 0.003 µM (ties excluded): COc1ccc2c(O[C@@H]3C[C@H]4C(=O)N[C@]5(C(=O)NS(=O)(=O)C6CC6)C[C@H]5/C=C\CCCCN(C)C(=O)[C@@H]4C3)cc(-n3ccc(C(C)C)n3)nc2c1C
Reply: not fulfilled

###

Tested on: HCV type 1b replicon in Huh-7 luc/neo (Huh-Luc) cells
methodSummary: Replicon assay: inhibition of HCV RNA replication in Huh-Luc cells (luciferase)
Type: cell-based
setupConditions: Hepatitis C virus, Huh-7, 72 h, luciferase activity, incubation of three days
// NB: equality with 0.006 µM counts as no (0); only EC50 strictly below is yes (1)

COc1ccc2c(O[C@H]3C[C@H]4C(=O)NCCCCC/C=C\[C@@H]5C[C@@]5(C(=O)NS(=O)(=O)C5CC5)NC(=O)[C@@H]4C3)cc(-c3nc(C(C)C)cs3)nc2c1C
no (0)
COc1ccc2c(O[C@@H]3C[C@H]4C(=O)N[C@]5(C(=O)NS(=O)(=O)C6(C)CC6)C[C@H]5/C=C\CCCCN(C)C(=O)[C@@H]4C3)cc(-c3nc(C(C)C)cs3)nc2c1C
yes (1)
COc1ccc2c(O[C@@H]3C[C@H]4C(=O)N[C@]5(C(=O)NS(=O)(=O)C6CC6)C[C@H]5/C=C\CCCCN(C)C(=O)[C@@H]4C3)cc(-c3cccc(C)n3)nc2c1C
no (0)
COc1ccc2c(O[C@@H]3C[C@H]4C(=O)N[C@]5(C(=O)NS(=O)(=O)C6(C)CC6)C[C@H]5/C=C\CCCCCNC(=O)N4C3)cc(-c3nc(C(C)C)cs3)nc2c1Cl (stereo in doubt)
yes (1)

Task item: Determine whether this compound shows EC50 lower than 0.006 µM (ties excluded): COc1ccc2c(O[C@@H]3C[C@H]4C(=O)N[C@]5(C(=O)O)C[C@H]5/C=C\CCCCN(C)C(=O)[C@@H]4C3)cc(-c3nc(C(C)C)cs3)nc2c1Cl
Reply: no (0)
